Hello, the source for this data is ChEMBL document CHEMBL1201862, in case you need it.

# key: entry, value: GI50
- System: PC-3
- experiment-notes: NCI tumour cell line growth inhibition, 48 h
The source made the active and inactive calls. Rule as the data show it: active = GI50 up to about 1.1 µM and inactive = higher.

- molecule: "C=C(Cl)C(Cl)(CBr)CCC(Cl)C(C)(C)Cl (centres undefined)"
  GI50: "1.53 µM (inactive)"

Asked: Which GI50 value belongs to CC(=O)/C(C)=N/NC(=O)c1ccccc1O ?
Given back: > 100 µM (inactive)

Asked: Which GI50 value belongs to CCCCCC/C=C\CCCCCCCCC(=O)c1cccc(OC)c1OC ?
Given back: 71 µM (inactive)

Asked: Which GI50 value belongs to C(=C/c1nnnn1-c1ccccc1)/Nc1ccccc1 ?
Given back: 27.2 µM (inactive)

Asked: Which GI50 value belongs to O=C(/N=C1/NCC(CN2CCN(c3ccccc3)CC2)O1)Nc1ccccc1 (centres undefined) ?
Given back: > 100 µM (inactive)

Asked: Which GI50 value belongs to COc1cc2c3c(c1O)C1(C=CC(=O)C=C1)CC3N(C)CC2 (centres undefined) ?
Given back: 14.3 µM (inactive)

Asked: Which GI50 value belongs to CC1CC(Nc2ccc(Br)cc2)N(C(=O)c2ccc(Br)cc2)O1 (centres undefined) ?
Given back: 2.23 µM (inactive)

Asked: Which GI50 value belongs to CCOC(=O)N1C=CC(=C2C(=C3C=CN(C(=O)OCC)C=C3)C(=C3C=CN(C(=O)OCC)C=C3)C2=C2C=CN(C(=O)OCC)C=C2)C=C1 ?
Given back: 17.1 µM (inactive)

Asked: Which GI50 value belongs to Oc1ccc(/N=N/c2ccc(Cl)cc2)cc1 ?
Given back: 14.9 µM (inactive)

---

# key: entry, value: GI50
- Tested on: SF-539
- experiment-notes: NCI tumour cell line growth inhibition, 48 h
Calls of active or inactive are those of the source. Rule as the data show it: active = GI50 up to about 1.1 µM and inactive = higher.

Observe how each entry below is paired with its result.
- compound: "Cc1cc2c(=O)cc(-c3ccc(C(=O)O)cc3)oc2c(C(N)=O)c1C"
  target-entity: "SF-539"
  GI50: "> 100 µM (inactive)"
- compound: "O=C1C2Nc3ccccc3SC2C(=O)N1c1ccc(Br)cc1 (stereo not drawn)"
  target-entity: "SF-539"
  GI50: "26.4 µM (inactive)"

Below: the item to evaluate.
Asked: Under SF-539: GI50 value of COc1cccc2c(Nc3ccc(S(=O)(=O)NC(C)=O)cc3)c3ccc([N+](=O)[O-])cc3nc12 ?
Given back: 60.5 µM (inactive)

---

- System: Malme-3M
- experiment-notes: NCI tumour cell line growth inhibition, 48 h
Active and inactive are the calls of the source. Rule as the data show it: active = GI50 up to about 1.1 µM and inactive = higher.
measured-quantity: GI50

Observe how each entry below is paired with its result.
- compound: "COc1cccc2c1C(CO)N1C(C#N)C3CC(C(=O)O)C(C1C2)N3C (stereo not given)"
  target-entity: "Malme-3M"
  GI50: "1.92 µM (inactive)"
- compound: "O=c1cccccc1NCCCNc1cccccc1=O"
  target-entity: "Malme-3M"
  GI50: "11.9 µM (inactive)"
- compound: "CCOc1cc(C2CC(c3ccc(NS(=O)(=O)c4cc([N+](=O)[O-])ccc4C)cc3)=NN2S(=O)(=O)c2cc([N+](=O)[O-])ccc2C)ccc1O (stereo not given)"
  target-entity: "Malme-3M"
  GI50: "23.3 µM (inactive)"
- compound: "CCN(CC)c1ccc(/N=N/c2ccc([N+](=O)[O-])cc2OC(=O)/C=C/c2ccccc2)c(OC(=O)/C=C/c2ccccc2)c1"
  target-entity: "Malme-3M"
  GI50: "6.44 µM (inactive)"
- compound: "CNc1ncnc2c1cnn2Cc1cn(CCCCO)nn1"
  target-entity: "Malme-3M"
  GI50: "> 100 µM (inactive)"
- compound: "CC1C(c2ccccc2)OP(=O)(OC(C#N)c2ccccc2)N1C (stereo not given)"
  target-entity: "Malme-3M"
  GI50: "89.3 µM (inactive)"
- compound: "CCc1cccc(CC)c1NC(=O)C(=O)Cc1nc2ccccc2o1"
  target-entity: "Malme-3M"
  GI50: "> 100 µM (inactive)"
- compound: "C(=C/c1nnnn1-c1ccccc1)/Nc1ccccc1"
  target-entity: "Malme-3M"
  GI50: "31.4 µM (inactive)"

Asked: Which GI50 value belongs to CCOC(=O)C(CC#Cc1ccc(C#CCC(NC(C)=O)C(=O)OCC)cc1)NC(C)=O (stereo not given) ?
Given back: > 100 µM (inactive)

Asked: Which GI50 value belongs to CCO/S(=N/S(=O)(=O)c1ccccc1)c1ccccc1[N+](=O)[O-] (stereo not given) ?
Given back: > 100 µM (inactive)

---

- Tested on: RPMI-8226
- experiment-notes: NCI tumour cell line growth inhibition, 48 h
The source made the active and inactive calls. Cut-off read from the data, not from the text of the source: active = GI50 up to about 1.1 µM and inactive = higher.
Permitted responses: active, inactive

Solved cases below.
- compound: "Clc1ncc(C(Cl)(Cl)Cl)nc1-c1ccccc1"
  group: "active"
- compound: "CCCCn1c2c(n(CCCC)c1=S)-c1c(n(CCCC)c(=S)n1CCCC)SSSS2"
  group: "active"
- compound: "O=C1C2Nc3ccccc3SC2C(=O)N1c1ccc(Br)cc1 (stereo unspecified)"
  group: "inactive"

Asked: Call for entry COc1ccc(/C=N/n2c(=O)[nH]c3ccccc3c2=O)cc1 :
Given back: inactive

Asked: Call for entry Oc1cc(Br)cc2cc(Br)cnc12 :
Given back: inactive

Asked: Call for entry CC(C)[Si](OC1=C(c2ccccc2)C(NC(=O)/C=C/c2ccc([N+](=O)[O-])cc2)CCC1)(C(C)C)C(C)C (stereo unspecified) :
Given back: inactive

Asked: Call for entry O=C1C2C(C(=O)N1OS(=O)(=O)c1ccccc1)N(Cc1ccccc1)C(=O)N2Cc1ccccc1 (stereo unspecified) :
Given back: inactive

Asked: Call for entry N#CC1(C#N)C(c2ccccc2)C=CC12OCCCO2 (stereo unspecified) :
Given back: inactive

Asked: Call for entry COc1cc(C(C)c2cc3c(cc2OCCO)OCO3)cc(OC)c1OC (stereo unspecified) :
Given back: inactive

---

- Tested on: MOLT-4
- experiment-notes: NCI tumour cell line growth inhibition, 48 h
The source made the active and inactive calls. Cut-off read from the data, not from the text of the source: active = GI50 up to about 1.1 µM and inactive = higher.
Permitted responses: active, inactive

- molecule: "Cc1csc(NNC(N)=O)n1"
  group: "inactive"

Asked: Call for entry CC1NC(C(=O)O)Cc2cc(O)c(O)cc21 (stereo not given) :
Given back: inactive

Asked: Call for entry COc1ccc2c3ccc4c(c3n(C)c2c1)C(=O)c1ccccc1C4=O :
Given back: inactive

Asked: Call for entry COc1cc2c[n+]3ccc4cc(OC)c(OC)cc4c3cc2cc1O :
Given back: inactive

Asked: Call for entry CC(C)(C)C1CCP(=O)(c2ccccc2)CC1 (stereo not given) :
Given back: inactive

Asked: Call for entry CCOC(=O)C(CC#Cc1ccc(C#CCC(NC(C)=O)C(=O)OCC)cc1)NC(C)=O (stereo not given) :
Given back: inactive

Asked: Call for entry CNc1ncnc2c1cnn2Cc1cn(CCCCO)nn1 :
Given back: inactive

Asked: Call for entry O=[N+]([O-])/C(C(Cl)=C(Cl)Cl)=C(/Cl)SCc1ccccc1 :
Given back: active

Asked: Call for entry COc1cc(/C=C2/CCS(=O)(=O)c3ccc(C)cc3C2=O)cc(OC)c1OC :
Given back: inactive

Asked: Call for entry C(=C\c1cccc(/C=C/c2ccccn2)n1)/c1ccccn1 :
Given back: inactive

Asked: Call for entry C[C@]12CC[C@H](O)CC1=CC[C@@H]1C2CC[C@]2(C)NC(=O)C(C#N)CC12 (stereo not given in full) :
Given back: inactive

Asked: Call for entry COC1=C2C=[N+](C)C3C(=C2C=CC1OC)Cc1cc2c(cc13)OCO2 (stereo not given) :
Given back: inactive

Asked: Call for entry CN1C[C@H]2[C@@H](C1=O)[C@H](c1ccccc1)ON2C :
Given back: inactive

Asked: Call for entry CC(CCC(=O)O)(c1cc(Br)c(O)c(Br)c1)c1cc(Br)c(O)c(Br)c1 :
Given back: inactive

Asked: Call for entry Cc1ccc(N2C(=O)CC(=O)N(NC(=O)C(C)Oc3ccccc3C)C2=S)cc1 (stereo not given) :
Given back: inactive

---

- Tested on: SNB-78
- experiment-notes: NCI tumour cell line growth inhibition, 48 h
Activity calls are given as the source filed them. Cut-off read from the data, not from the text of the source: active = GI50 up to about 1.1 µM and inactive = higher.
measured-quantity: GI50

Observe how each entry below is paired with its result.
- compound: "CCCCCCCCC[C@@H]1C[C@H](O)[C@H](Cc2ccccc2)N1C(=O)OC(C)(C)C"
  GI50: "22.8 µM (inactive)"
- compound: "O=C1NC(Cc2ccccc2)C(=O)N2CCCC12 (centres undefined)"
  GI50: "> 100 µM (inactive)"
- compound: "COCC(O)CN1C(N)=NC(O)C1O (centres undefined)"
  GI50: "> 100 µM (inactive)"

Below: the item to evaluate.
Asked: Under SNB-78: GI50 value of O=C1C2C(C(=O)N1OS(=O)(=O)c1ccccc1)N(Cc1ccccc1)C(=O)N2Cc1ccccc1 (centres undefined) ?
Given back: > 100 µM (inactive)

---

- Test system: HOP-62
- experiment-notes: NCI tumour cell line growth inhibition, 48 h
The source made the active and inactive calls. No stated cut-off is given here; in the data, active = GI50 up to about 1.1 µM and inactive = higher.
Permitted responses: TRUE (active), FALSE (inactive)

- compound: "COc1ccc2c3ccc4c(c3n(C)c2c1)C(=O)c1ccccc1C4=O"
  target-entity: "HOP-62"
  group: "FALSE"
- compound: "Sc1nn2c(COc3cc(Cl)c(OCc4nnc5sc(S)nn45)cc3Cl)nnc2s1"
  target-entity: "HOP-62"
  group: "FALSE"
- compound: "CC1NC(C(=O)O)Cc2cc(O)c(O)cc21 (stereo not drawn)"
  target-entity: "HOP-62"
  group: "FALSE"

Asked: Call for entry COC(=O)[C@@H]1c2cc3c(c(O)c2[C@@H](OC)C[C@@]1(C)O)C(=O)c1c(O)cc2c(c1C3=O)OC1O[C@@]2(C)[C@H](O)[C@@H](N(C)C)[C@@H]1O :
Given back: TRUE

Asked: Call for entry CCOC(=O)C(=O)Nc1nc2ccc(OC)cc2s1 :
Given back: FALSE

Asked: Call for entry C[N+](C)(C)CC(=O)N/N=C(/CC(=O)CC(C1=C(O)c2ccccc2OC1)c1ccccc1)C(=O)Nc1cccc(Cl)c1 (stereo not drawn) :
Given back: FALSE

Asked: Call for entry NN/C(=N\S(=O)(=O)c1cc(S(=O)(=O)c2ccccc2)cs1)Nc1ccc(Cl)cc1 :
Given back: FALSE

Asked: Call for entry Cn1c(CCC#N)nc2ccc(Br)cc2c1=O :
Given back: FALSE

Asked: Call for entry C[N+]12C=CC=C1C(N1CCCC1)c1scc(-c3ccccc3)c12 (stereo not drawn) :
Given back: FALSE

Asked: Call for entry O=C1C2Nc3ccccc3SC2C(=O)N1c1ccc(Br)cc1 (stereo not drawn) :
Given back: FALSE

Asked: Call for entry CCOc1ccc2c(c1)c(=O)c1c(NCCN(CC)CC)ccc3nnn2c31 :
Given back: FALSE

Asked: Call for entry N#CCN1CCCN(CC#N)CCN(CC#N)CCCN(CC#N)CC1 :
Given back: FALSE

Asked: Call for entry COc1ccc(C2SC(=N)Nc3c2c(C)nn3C(=O)c2ccncc2)cc1 (stereo not drawn) :
Given back: FALSE

Asked: Call for entry COc1cccc(NC(=O)CC(=O)N2N=C(N(CCC#N)c3ccc(Cl)cc3)CC2c2ccccc2)c1 (stereo not drawn) :
Given back: FALSE
